# system-under-test: recombinant IgI3 domain of the S. pyogenes R28 protein (R28-IgI3), wildtype (S. pyogenes) (UniProt Q9XDB6)
# procedure-details: ITC; iTC200, 25 °C, 16 injections of 2.42 µl, 30 mM Tris-HCl, 150 mM NaCl, pH 7.5, 750 rpm, in duplicate; 500 µM rCEACAM-N domains in the syringe, 50 µM rR28-IgI3 (methods)
Record form. Attribute: pKd. Fill in for each entry.
Keep in mind that pKd stands for -log10 of concentration in molar terms.

Using the record for rCEACAM1-N Q89A (from UniProt P13688 34-141) (domain or fragment) , report its pKd.
6.16

Next up: rCEACAM1-N V96A (from UniProt P13688 34-141) (domain or fragment)
6.94

Now this one: rCEACAM1-N Q44A (from UniProt P13688 34-141) (domain or fragment)
6.04

Moving on to the next substance: rCEACAM1-N N97A (from UniProt P13688 34-141) (domain or fragment)
6.68
